Data credit: ChEMBL document CHEMBL2062364

- Protocol: Terminal half life in CB17/ICR-Prkdc SCID mouse at 10 mg/kg, po
- Type: ADME, organism-based
- Set-up: dose 10 mg/kg, route oral
- Test Conditions: in vivo, read-out: beta t1/2 (converted)
Experimental Readout: half-life (min)
Dear colleague, please return just the value in min, with no unit written.

-- ask Give the measured half-life of Cn1c(Cc2nc(N3CCOCC3)cc(=O)[nH]2)nc2ccccc21 .
-- reply 234

====

Each entry below carries its reported solubility thermodynamic at 16 h.
- Protocol: Thermodynamic solubility of the compound in phosphate buffer at pH 7.4 after 16 hrs by HPLC analysis
- Format: physicochemical
- Test Conditions: read-out: Therm_solubility
Dear colleague, please return just the value in µM, with no unit written.

[
  {
    "Structure String": "O=c1cc(N2CCOCC2)nc(Cc2nc3c(-c4ccccc4)c(F)ccc3o2)[nH]1",
    "Assay Result": 15
  },
  {
    "Structure String": "O=c1cc(N2CCOCC2)nc(Cc2nc3cc(Br)ccc3[nH]2)[nH]1",
    "Assay Result": 3
  },
  {
    "Structure String": "O=c1cc(N2CCOCC2)nc(Cc2nc3ccc(F)cc3[nH]2)[nH]1",
    "Assay Result": 76
  },
  {
    "Structure String": "O=c1cc(N2CCOCC2)nc(Cc2nc3cc(F)ccc3o2)[nH]1",
    "Assay Result": 3
  }
]

Next molecule, solubility thermodynamic at 16 h to be filled in.
-- ask Give the measured solubility thermodynamic at 16 h of O=c1cc(N2CCOCC2)nc(Cc2nc3c(-c4cccs4)cccc3o2)[nH]1 .
-- reply 3

====

- Target Under Test: Phosphatidylinositol 4,5-bisphosphate 3-kinase catalytic subunit beta isoform (Homo sapiens)
- Sequence (P42338 whole entry, canonical isoform): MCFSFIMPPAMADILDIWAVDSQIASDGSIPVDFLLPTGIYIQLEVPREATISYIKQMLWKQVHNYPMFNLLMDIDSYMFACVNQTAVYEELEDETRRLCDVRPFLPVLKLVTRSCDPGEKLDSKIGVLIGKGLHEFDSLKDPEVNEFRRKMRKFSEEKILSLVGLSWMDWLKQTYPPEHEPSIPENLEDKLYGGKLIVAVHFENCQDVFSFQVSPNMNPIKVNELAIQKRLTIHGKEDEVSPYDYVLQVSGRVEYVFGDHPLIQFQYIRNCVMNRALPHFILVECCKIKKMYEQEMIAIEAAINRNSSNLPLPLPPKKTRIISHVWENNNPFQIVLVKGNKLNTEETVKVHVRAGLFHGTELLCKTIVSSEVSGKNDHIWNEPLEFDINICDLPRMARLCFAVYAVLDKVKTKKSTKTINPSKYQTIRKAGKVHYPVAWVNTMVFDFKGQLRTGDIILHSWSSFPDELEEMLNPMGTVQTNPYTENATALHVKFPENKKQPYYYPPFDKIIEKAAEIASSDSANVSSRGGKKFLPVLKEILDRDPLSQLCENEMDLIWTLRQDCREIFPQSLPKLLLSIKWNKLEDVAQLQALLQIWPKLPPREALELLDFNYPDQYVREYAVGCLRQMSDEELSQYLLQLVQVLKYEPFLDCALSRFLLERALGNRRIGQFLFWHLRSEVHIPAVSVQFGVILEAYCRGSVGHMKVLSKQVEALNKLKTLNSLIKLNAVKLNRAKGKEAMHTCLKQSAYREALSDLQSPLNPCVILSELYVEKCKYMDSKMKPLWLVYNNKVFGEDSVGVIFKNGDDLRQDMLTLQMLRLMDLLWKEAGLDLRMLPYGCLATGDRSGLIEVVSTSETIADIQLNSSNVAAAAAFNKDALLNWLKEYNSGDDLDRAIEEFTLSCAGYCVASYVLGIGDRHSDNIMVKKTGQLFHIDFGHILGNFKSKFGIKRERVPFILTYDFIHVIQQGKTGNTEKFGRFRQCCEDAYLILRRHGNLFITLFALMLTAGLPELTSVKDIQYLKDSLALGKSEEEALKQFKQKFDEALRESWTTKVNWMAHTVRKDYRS
- Protocol: Inhibition of human PI3Kbeta-mediated Akt phosphorylation at Ser473 residue expressed in PTEN-deficient human PC3 cells by chemiluminescence assay
- Format: cell-based, PC-3
Experimental Readout: pIC50
Please keep in mind that pIC50 is minus log10 of the molar concentration; only the number is needed.

Worked examples follow.
[
  {
    "Structure String": "O=c1cc(N2CCOCC2)nc(Cc2nc3c(-c4cccs4)cccc3o2)[nH]1",
    "pIC50": 7.66
  },
  {
    "Structure String": "Cc1cccc2nc(Cc3nc(N4CCOCC4)cc(=O)[nH]3)oc12",
    "pIC50": 6.69
  },
  {
    "Structure String": "O=c1cc(N2CCOCC2)nc(Cc2nc3ccccc3n2C2CCCCC2)[nH]1",
    "pIC50": 6.85
  },
  {
    "Structure String": "O=c1cc(N2CCOCC2)nc(Cc2nc3ccc(F)cc3[nH]2)[nH]1",
    "pIC50": 7.39
  },
  {
    "Structure String": "O=c1cc(N2CCOCC2)nc(Cc2nc3ccc(F)cc3o2)[nH]1",
    "pIC50": 7.31
  },
  {
    "Structure String": "Cc1ccc2[nH]c(Cc3nc(N4CCOCC4)cc(=O)[nH]3)nc2c1",
    "pIC50": 6.85
  },
  {
    "Structure String": "O=c1cc(N2CCOCC2)nc(Cc2nc3cc(F)ccc3n2C2CC2)[nH]1",
    "pIC50": 8.05
  },
  {
    "Structure String": "Cn1c(Cc2nc(N3CCOCC3)cc(=O)[nH]2)nc2cccc(-c3ccccc3)c21",
    "pIC50": 7.77
  }
]

-- ask Give the measured pIC50 of O=c1cc(N2CCOCC2)nc(Cc2nc3c(F)cccc3o2)[nH]1 .
-- reply 6.90

-- ask Entry O=c1cc(N2CCOCC2)nc(Cc2nc3c(Br)cccc3o2)[nH]1 please
-- reply 6.90

-- ask Entry Cc1ccc2oc(Cc3nc(N4CCOCC4)cc(=O)[nH]3)nc2c1 please
-- reply 6.63
